systemName: pre-existing anti-drug antibodies (ADA) present in human sera
measurementNotes: pre-existing ADA ELISA, scFv coated, human sera unspiked vs spiked
A collection of binders and their measured No of serum samples >30% inhibition (30% CCP) without SCP (serum samples)
Give your answer as a number; write no unit.

{"binder": "PRO2913 (scFv 37-20-B03-sc09.1_(T101S, T146Q)) (scFv, PRO2230 variant; VH substitutions, AHo numbering; also called PRO2230 T101S-T146Q) scFv: DIQMTQSPASLSASVGDRVTITCQASQSIGTYLAWYQQKPGKPPKLLIYRAFILASGVPSRFSGSGSGTDFTLTISSLQPEDFATYYCQSNFYSDSTTIGPNAFGTGTKVTVLGGGGGSGGGGSGGGGSGGGGSEVQLVESGGGLVQPGGSLRLSCAASGFSFNSDYWIYWVRQAPGKGLEWIASIYGGSSGNTQYASWAQGRFTISRDNSKNTVYLQMNSLRAEDSAVYFCARGYVDYGGATDLWGQGTLVQVSS", "reportedValue": 2}

Output measured No of serum samples >30% inhibition (30% CCP) without SCP (serum samples) for this item: PRO3307 (scFv 37-20-B03-sc09.1_(L12A, T101S, L144A, T146R)) (scFv, PRO2230 variant; VH substitutions, AHo numbering; also called PRO2230 L12A-T101S-L144A-T146R) scFv: DIQMTQSPASLSASVGDRVTITCQASQSIGTYLAWYQQKPGKPPKLLIYRAFILASGVPSRFSGSGSGTDFTLTISSLQPEDFATYYCQSNFYSDSTTIGPNAFGTGTKVTVLGGGGGSGGGGSGGGGSGGGGSEVQLVESGGGAVQPGGSLRLSCAASGFSFNSDYWIYWVRQAPGKGLEWIASIYGGSSGNTQYASWAQGRFTISRDNSKNTVYLQMNSLRAEDSAVYFCARGYVDYGGATDLWGQGTAVRVSS
7
